Assignment: determine reported shrunken log2 fold change for the given sequences.
# Tested on: Escherichia coli TOP10
# Procedure Summary: shrunken log2 fold change of peptide-encoding DNA abundance (4.5 h post-induction vs induction); higher = less antimicrobial activity (less host growth inhibition)
# Condition Info: time post-induction: 4.5 h; library: site-saturation at positions 5, 18, 19, 20
Answers are plain numbers.

For every item below, please supply its shrunken log2 fold change.
1. RRIRYRPPRLPRPRPRPQCNPRP
2. RRIRTRPPRLPRPRPRPFVSPRP
3. RRIRHRPPRLPRPRPRPVFTPRP
4. RRIRIRPPRLPRPRPRPRRRPRP
5. RRIRKRPPRLPRPRPRPYWRPRP

Key:
1. -0.269
2. 0.00713
3. -0.392
4. 0.169
5. -0.426

For every item below, please supply its shrunken log2 fold change.
1. RRIRDRPPRLPRPRPRPYHNPRP
2. RRIRPRPPRLPRPRPRPYKWPRP
3. RRIRVRPPRLPRPRPRPVSHPRP

Key:
[-0.461, -0.296, 0.173]

For every item below, please supply its shrunken log2 fold change.
1. RRIRKRPPRLPRPRPRPQGTPRP
2. RRIRQRPPRLPRPRPRPMMEPRP
3. RRIRVRPPRLPRPRPRPYKTPRP

Key:
1: -0.0539; 2: 0.00908; 3: 0.0577

For every item below, please supply its shrunken log2 fold change.
1. RRIRVRPPRLPRPRPRPNKKPRP
2. RRIRSRPPRLPRPRPRPHYFPRP
3. RRIRARPPRLPRPRPRPFDRPRP
4. RRIRDRPPRLPRPRPRPGRWPRP

Key:
1. -0.0801
2. -0.51
3. 0.0972
4. 0.797

---

# System: Escherichia coli TOP10
# Procedure Summary: shrunken log2 fold change of peptide-encoding DNA abundance (4.5 h post-induction vs induction); higher = less antimicrobial activity (less host growth inhibition)
# Condition Info: time post-induction: 4.5 h; library: site-saturation at positions 5, 18, 19, 20
Assignment: determine reported shrunken log2 fold change for the given sequences.
One number for each entry.

INSERT INTO assay_data (sequence_content, assay_system, measured_attribute, readout_number) VALUES
  ('RRIRHRPPRLPRPRPRPNIFPRP', 'Escherichia coli TOP10', 'shrunken log2 fold change', -0.0903);

For every item below, please supply its shrunken log2 fold change.
1. RRIRPRPPRLPRPRPRPYKIPRP
2. RRIRLRPPRLPRPRPRPLQLPRP
3. RRIRERPPRLPRPRPRPACMPRP
4. RRIRDRPPRLPRPRPRPYHHPRP
5. RRIRWRPPRLPRPRPRPLMHPRP
6. RRIRMRPPRLPRPRPRPVLRPRP
7. RRIRTRPPRLPRPRPRPLEWPRP

Key:
-0.227
0.267
-0.0379
-0.0229
0.0245
0.106
0.178

---

# Tested on: Escherichia coli TOP10;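 also: peptides expressed intracellularly from a pBAD plasmid library in pooled LB shake-flask culture, induced with 0.3% L-arabinose, DNA abundance read by NGS, three biological replicates, DESeq2 with apeglm shrinkage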
# Procedure Summary: shrunken log2 fold change of peptide-encoding DNA abundance (4.5 h post-induction vs induction); higher = less antimicrobial activity (less host growth inhibition)
# Condition Info: time post-induction: 4.5 h; library: site-saturation at positions 5, 18, 19, 20
Measured Attribute: shrunken log2 fold change
One number for each entry.

The cases that follow already have their shrunken log2 fold change on record.
INSERT INTO assay_data (sequence_content, readout_number) VALUES
  ('RRIRKRPPRLPRPRPRPCQWPRP', -0.0983),
  ('RRIRQRPPRLPRPRPRPAFQPRP', 0.0837),
  ('RRIRWRPPRLPRPRPRPEYTPRP', 0.166),
  ('RRIRKRPPRLPRPRPRPDGEPRP', 1.16),
  ('RRIRFRPPRLPRPRPRPQDNPRP', -0.186);

For every item below, please supply its shrunken log2 fold change.
1. RRIRKRPPRLPRPRPRPYKIPRP
2. RRIRYRPPRLPRPRPRPKMHPRP
3. RRIRGRPPRLPRPRPRPMWWPRP
4. RRIRWRPPRLPRPRPRPYHTPRP
5. RRIRIRPPRLPRPRPRPEDDPRP
6. RRIRWRPPRLPRPRPRPGWLPRP

Key:
[-0.305, -0.561, 0.184, -0.816, -0.16, 0.375]

For every item below, please supply its shrunken log2 fold change.
1. RRIRERPPRLPRPRPRPWAGPRP
2. RRIRNRPPRLPRPRPRPYMIPRP
3. RRIRIRPPRLPRPRPRPYKPPRP
4. RRIRMRPPRLPRPRPRPTWFPRP
5. RRIRNRPPRLPRPRPRPFNQPRP
6. RRIRWRPPRLPRPRPRPIAYPRP
7. RRIRDRPPRLPRPRPRPFWSPRP
8. RRIRLRPPRLPRPRPRPTIQPRP

Key:
-0.208
0.0323
-0.0367
0.448
-0.408
0.000575
0.000201
-0.0934

For every item below, please supply its shrunken log2 fold change.
1. RRIRCRPPRLPRPRPRPGDDPRP
2. RRIRKRPPRLPRPRPRPFDQPRP
3. RRIRYRPPRLPRPRPRPGRLPRP
4. RRIRPRPPRLPRPRPRPTRIPRP
5. RRIRLRPPRLPRPRPRPKLTPRP
6. RRIRQRPPRLPRPRPRPLWRPRP
7. RRIRTRPPRLPRPRPRPKQKPRP

Key:
1: 0.745; 2: -0.0318; 3: -0.0505; 4: 0.105; 5: 0.106; 6: 3.25; 7: -0.203

Provenance of the data: the supplement of paper PMC9112550
